src = ChEMBL document CHEMBL1153383

Activity for assorted compounds
# target-of-assay: UniProt:P30542
# assay-overview: Displacement of [3H]CCPA from human recombinant adenosine A1 receptor expressed in CHO cells at 10 uM
# Assay type: cell-based

>  <molecule>
COc1ccc(Nc2nc3ccccc3c3[nH]c(C4CCCCC4)nc23)cc1OC

>  <target-of-assay>
UniProt:P30542

>  <Activity>
75.6%

$$$$
>  <molecule>
Clc1ccc(Nc2nc3ccccc3c3[nH]c(C4CCCCCC4)nc23)cc1Cl

>  <target-of-assay>
UniProt:P30542

>  <Activity>
-4.2%

$$$$
>  <molecule>
Clc1ccc(Nc2nc3ccccc3c3[nH]c(C4CCN(Cc5ccccc5)CC4)nc23)cc1Cl

>  <target-of-assay>
UniProt:P30542

>  <Activity>
17.8%

$$$$
>  <molecule>
Clc1ccc(Nc2nc3ccccc3c3[nH]c(C45CC6CC(CC4C6)C5)nc23)cc1Cl

>  <target-of-assay>
UniProt:P30542

>  <Activity>
14.5%

$$$$
>  <molecule>
N#Cc1ccc(Nc2nc3ccccc3c3nc(C4CCCCC4)[nH]c23)cc1C#N

>  <target-of-assay>
UniProt:P30542

>  <Activity>
33.1%

$$$$
>  <molecule>
Clc1ccc(Nc2nc3ccccc3c3nc(C4CCCCC4)[nH]c23)cc1Cl

>  <target-of-assay>
UniProt:P30542

>  <Activity>
37%

$$$$
>  <molecule>
Clc1cccc(Nc2nc3ccccc3c3[nH]c(C4CCCCC4)nc23)c1

>  <target-of-assay>
UniProt:P30542

>  <Activity>
53.3%

$$$$
>  <molecule>
Fc1ccc(Nc2nc3ccccc3c3[nH]c(C4CCCCC4)nc23)cc1F

>  <target-of-assay>
UniProt:P30542

>  <Activity>
14.6%

$$$$
>  <molecule>
Clc1ccc(Nc2nc3ccccc3c3[nH]c(C4CCOCC4)nc23)cc1Cl

>  <target-of-assay>
UniProt:P30542

>  <Activity>
37.2%

$$$$
>  <molecule>
O=C(c1ccccc1)N1CCC(c2nc3c(Nc4ccccc4)nc4ccccc4c3[nH]2)CC1

>  <target-of-assay>
UniProt:P30542

>  <Activity>
12.4%

$$$$

====

# target-of-assay: Adenosine receptor A1 (Homo sapiens)
# Sequence (whole entry): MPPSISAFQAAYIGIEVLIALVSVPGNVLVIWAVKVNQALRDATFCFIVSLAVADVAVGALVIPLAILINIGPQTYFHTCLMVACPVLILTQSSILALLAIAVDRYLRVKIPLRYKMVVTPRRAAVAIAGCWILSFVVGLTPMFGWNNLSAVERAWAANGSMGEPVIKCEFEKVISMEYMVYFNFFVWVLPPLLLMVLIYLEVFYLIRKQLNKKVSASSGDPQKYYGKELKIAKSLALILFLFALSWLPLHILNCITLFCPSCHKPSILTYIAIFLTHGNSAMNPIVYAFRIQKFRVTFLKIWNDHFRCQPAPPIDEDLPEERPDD
# assay-overview: Displacement of [3H]CCPA from human recombinant adenosine A1 receptor expressed in CHO cells at 10 uM
# Format: cell-based
Activity for assorted compounds

>  <molecule>
Clc1ccc(Nc2nc3ccccc3c3[nH]c(C4CCC4)nc23)cc1Cl

>  <target-of-assay>
Adenosine receptor A1 (Homo sapiens)

>  <units-symbol>
%

>  <Activity>
-5.2

$$$$
>  <molecule>
Clc1cc(Cl)cc(Nc2nc3ccccc3c3[nH]c(C4CCCCC4)nc23)c1

>  <target-of-assay>
Adenosine receptor A1 (Homo sapiens)

>  <units-symbol>
%

>  <Activity>
16.7

$$$$
>  <molecule>
Clc1ccc(Nc2nc3ccccc3c3[nH]c([C@H]4C[C@H]5CC[C@@H]4C5)nc23)cc1Cl

>  <target-of-assay>
Adenosine receptor A1 (Homo sapiens)

>  <units-symbol>
%

>  <Activity>
77.9

$$$$
>  <molecule>
c1cncc(Nc2nc3ccccc3c3[nH]c(C4CCCCC4)nc23)c1

>  <target-of-assay>
Adenosine receptor A1 (Homo sapiens)

>  <units-symbol>
%

>  <Activity>
73.1

$$$$
>  <molecule>
O=C1c2ccccc2C(=O)N1[C@H]1CC[C@@H](c2nc3c(Nc4ccc(Cl)c(Cl)c4)nc4ccccc4c3[nH]2)CC1

>  <target-of-assay>
Adenosine receptor A1 (Homo sapiens)

>  <units-symbol>
%

>  <Activity>
21.4

$$$$
